These entries and their values trace back to ChEMBL document CHEMBL5029183.

Listing of recorded half-life by entry.
Assay: Metabolic stability in Kunming mouse serum assessed as half life measured upto 480 mins by RP-HPLC analysis
Assay type: ADME, cell-free

Data request: Look up half-life of N=C(N)NCCC[C@@H](NC(=O)[C@@H](CCCNC(=N)N)NC(=O)CNC(=O)[C@@H]1CSSC[C@H](NC(=O)[C@@H](N)Cc2ccc(O)cc2)C(=O)N[C@@H](Cc2ccccc2)C(=O)N[C@@H](Cc2ccccc2)C(=O)N1)C(=O)O and report it.
Data returned: 3.6 h

Data request: Look up half-life of N=C(N)NCCC[C@@H](NC(=O)[C@@H](CCCNC(=N)N)NC(=O)CNC(=O)[C@@H]1CSSC[C@H](NC(=O)[C@@H](N)Cc2ccc(O)cc2)C(=O)N[C@@H](Cc2c[nH]c3ccccc23)C(=O)N[C@@H](Cc2ccccc2)C(=O)N1)C(=O)O and report it.
Data returned: 3.28 h

Data request: Look up half-life of N=C(N)NCCC[C@@H](NC(=O)[C@@H](CCCNC(=N)N)NC(=O)CNC(=O)[C@@H]1CSSC[C@H](NC(=O)[C@@H](N)Cc2ccc(O)cc2)C(=O)N[C@@H](Cc2c[nH]c3ccccc23)C(=O)N[C@@H](Cc2ccc(Cl)cc2)C(=O)N1)C(=O)O and report it.
Data returned: 4.57 h

====

Experiment: Metabolic stability in Kunming mouse serum assessed as half life measured upto 480 mins by RP-HPLC analysis
Type: ADME, cell-free
Listing of recorded half-life by entry.

COMPOUND | half-life
Cc1cc(O)cc(C)c1C[C@H](N)C(=O)N[C@H]1CSSC[C@@H](C(=O)NCC(=O)N[C@H](CCCNC(=N)N)C(=O)N[C@H](CCCNC(=N)N)C(=O)O)NC(=O)[C@H](Cc2ccc(Cl)cc2)NC(=O)[C@H](Cc2c[nH]c3ccccc23)NC1=O | 335 min
NC(=O)[C@H](Cc1ccccc1)NC(=O)[C@H](Cc1ccccc1)NC(=O)[C@@H]1CCCN1C(=O)[C@@H](N)Cc1ccc(O)cc1 [ENDOMORPHIN 2] | 8.9 min
N=C(N)NCCC[C@@H](NC(=O)[C@@H](CCCNC(=N)N)NC(=O)CNC(=O)[C@@H]1CSSC[C@H](NC(=O)[C@@H](N)Cc2ccc(O)cc2)C(=O)N[C@@H](Cc2ccccc2)C(=O)N[C@@H](Cc2ccc(Cl)cc2)C(=O)N1)C(=O)O | 268 min

Now let's try a different one.
Data request: Look up half-life of Cc1cc(O)cc(C)c1C[C@H](N)C(=O)N[C@H]1CSSC[C@@H](C(=O)NCC(=O)N[C@H](CCCNC(=N)N)C(=O)N[C@H](CCCNC(=N)N)C(=O)O)NC(=O)[C@H](Cc2ccc(Cl)cc2)NC(=O)[C@H](Cc2ccccc2)NC1=O and report it.
Data returned: 320 min
